target_entity: T1, human VEGF165 (human, UniProt P15692)
T1 chain: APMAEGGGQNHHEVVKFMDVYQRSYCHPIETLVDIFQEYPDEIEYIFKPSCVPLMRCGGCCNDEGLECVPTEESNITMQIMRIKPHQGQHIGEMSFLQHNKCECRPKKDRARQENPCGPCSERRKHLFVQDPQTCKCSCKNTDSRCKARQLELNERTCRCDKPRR
protocol_text: SPR, pH 5
Would you kindly list Kd for each of these binders?
API: value field is a number in nM; no unit string.

Q: Need Kd of 435-max (antibody, V domains shown) VH: EVQLVESGGGLVQPGGSLRLSCKVSGFSLNTNYWMCWVRQAPGKGLEWVGCMYTGSYNRAYYASWAKGRFTSSKDTSKNTVYLQMNSLRAEDTAVYYCAKGSNWYSDLWGQGTLVTVSS VL: EIVMTQSPSTLSASVGDRVIIKCQASQSIGSSLAWYQQKPGKAPKLLIYTAANLASGVPSRFSGSGSGAEFTLTISSLQPDDFATYYCQNFATSDTVTFGQGTKLTVLG , thanks.
Ans: 4.53

Q: Need Kd of 610-max (antibody, V domains shown) VH: EVQLVESGGGLVQPGGSLRLSCTASGIDFSGAYYMGWVRQAPGKGLEWVGYIDYDGDRYYASWAKGRFTISKDTSKNTVYLQMNSLRAEDTAVYYCARSDYSSGWGTDIWGQGTLVTVSS VL: EIVMTQSPSTLSASVGDRVIITCQASQSISSWLSWYQQKPGKAPKLLIYQASTLASGVPSRFSGSGSGTEFTLTISSLQPDDFATYYCQNNYGFRSYGGAFGQGTKLTVLG , thanks.
Ans: 1.18

Q: Need Kd of 509-max (antibody, V domains shown) VH: EVQLVESGGGLVQPGGSLRLSCTASGFSLSSYYMCWVRQAPGKGLEWVGCLDYVGDTDYASWAKGRFTISKDASKNTVYLQMNSLRAEDTAVYYCARTDDSRGWGLNIWGQGTLVTVSS VL: EIVMTQSPSTLSASVGDRVIITCQASQNIRIWLSWYQQKPGKAPKLLIYKASTLESGVPSRFSGSGSGTEFTLTISSLQPDDFATYYCQNNAHYSTNGGTFGQGTKLTVLG , thanks.
Ans: 1.21
